// provenance: patent US20260116991A1

Biological target: T1, polypeptide GC3pep (human)
T1 construct: also called membrane proximal polypeptide GC3pep
T1 peptide: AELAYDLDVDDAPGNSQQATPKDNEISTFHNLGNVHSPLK
Experiment: ELISA, GC3pep coated, antibody 0.0001 nM
property label: OD450 nm
Give the figure together with its unit, number first.

>  <binder>
F1.118.4 (antibody, human IgG1, kappa, V domains shown, human-murine chimeric antibody) VH: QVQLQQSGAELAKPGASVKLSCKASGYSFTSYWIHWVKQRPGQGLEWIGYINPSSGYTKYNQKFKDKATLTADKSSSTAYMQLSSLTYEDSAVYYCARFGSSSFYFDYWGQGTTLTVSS VL: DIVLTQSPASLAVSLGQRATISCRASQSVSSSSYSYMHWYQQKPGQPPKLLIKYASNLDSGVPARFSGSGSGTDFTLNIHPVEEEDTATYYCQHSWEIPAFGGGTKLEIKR

>  <OD450 nm>
0.05 OD450 nm

$$$$
>  <binder>
F1.136.7 (antibody, human IgG1, kappa, V domains shown, human-murine chimeric antibody) VH: EVQLQQSGPVMVKPGPSVKISCQTSGFTFTDYYIHWVKQSHGKSLEWIGLVFPYDGGTNYNQKFKDKATLTLDTSSSTAYMELNSLTSEDSAVYYCARAGGFSYALNYWGQGTSVTVSS VL: DIQMTQSPSSLSASLGGKVTITCKASQDINNYIAWYQHKPGKGPRLLIHFTSTLQPGIPSRFSGSGSGRDYSFSISNLEPEDIATYYCLQYDNLLLTFGAGTKLELKR

>  <OD450 nm>
0.05 OD450 nm

$$$$
>  <binder>
F4.21.16 (antibody, human IgG1, kappa, V domains shown, human-murine chimeric antibody) VH: DVQLQESGPGLVKPSQSLSLTCSVTGYSITSGYYWNWIRQFPGNKLEWMGYISYDVTVNYNPSLKNRISITRDTSKNQFFLKLNSVTTEDTATYYCATITSVASMDHWGQGTSVTVSS VL: DILMTQTPLSLPVSLGDQASISCRSSQNIVHRNGNTYLEWYLQKPGQSPKLLLYKVSNRFSGVPDRFSGSGSGTDFTLKISRVEAEDLGIYYCFQGSHFPFTFGSGTKLEIKR

>  <OD450 nm>
0.04 OD450 nm

$$$$
>  <binder>
F1.120.16 (antibody, human IgG1, kappa, V domains shown, human-murine chimeric antibody) VH: EFQLQQSGPELVKPGASVKISCKASGYSFTDYNMNWVKQSNGKSLEWIGLIHPKFSVTSYNRKFKGKATLTVDQSSSTAYMQLNSLTSEDSAVYYCARWAGDYFDYWGQGTTLTVSS VL: DIVLTQSPATLSVTPGDSVSLSCRASQSISNNLHWYQQKSHESPRLLIKYASQSISGIPSRFSGSGSGTDFTLTINSVETEDFGMYFCQQSNSWPQTFGGGTKLEIKR

>  <OD450 nm>
0.05 OD450 nm

$$$$

Note: attention shifts to another entry.
(Q) Suppose we examine the binder F3.81.19 (antibody, human IgG1, kappa, V domains shown, human-murine chimeric antibody) VH: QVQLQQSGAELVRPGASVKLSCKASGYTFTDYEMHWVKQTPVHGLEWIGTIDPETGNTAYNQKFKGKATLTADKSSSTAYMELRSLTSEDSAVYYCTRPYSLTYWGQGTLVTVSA VL: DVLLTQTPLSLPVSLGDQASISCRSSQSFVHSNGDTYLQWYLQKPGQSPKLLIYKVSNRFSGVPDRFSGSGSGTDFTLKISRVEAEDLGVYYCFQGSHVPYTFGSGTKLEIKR ; what OD450 nm value has been reported?
(A) 0.05 OD450 nm
